- method: Solubility of crystalline substance in the inhibitor (HPLC of saturated solution)
- Format: physicochemical
- settings: Miglyol 812N (medium chain triglyceride mixture), oil or lipid, thermodynamic from solid; room temperature, 2 days stirring; read-out: solubility in Miglyol 812N
- Protocol: The mole fraction solubility of the crystalline substantially water-insoluble substance in the inhibitor (x^S1) is simply the number of moles of substance per mole of inhibitor present in a saturated solution of the substance in the inhibitor. As will be realized the equation above is derived for a two component system of a substance and an inhibitor. […] Mwn is the molecular weight of each component a . . . n in the mixture. • x^S1 is then calculated as: [formula] […]
value.kind: solubility at 2 days
Include the unit after the number when you answer.

Req: Which solubility at 2 days is listed for CCOC(=O)C1=C(C)NC(C)=C(C(=O)OC)C1c1cccc(Cl)c1Cl (stereo not shown) [felodipine] ?
Resp: 69 mM

###

- method: Solubility of crystalline substance in the inhibitor (HPLC of saturated solution)
- Format: physicochemical
- settings: oil or lipid, thermodynamic from solid
value.kind: solubility

Req: Which solubility is listed for `CCc1cccc(C)c1CNc1cc(C(N)=O)cn2c(C)c(C)nc12` ?
Resp: 37 mM

###

- method: Solubility of crystalline substance in the inhibitor (HPLC of saturated solution)
- Format: physicochemical
- settings: oil or lipid, thermodynamic from solid
value.kind: solubility at 2 days (µM)
Give bare numbers, in µM.

Req: Which solubility at 2 days is listed for `CCc1cccc(C)c1CNc1cc(C(N)=O)cn2c(C)c(C)nc12` ?
Resp: 2200
